Hello, the source for this data is ChEMBL document CHEMBL1139537, in case you need it.

biological target: Growth factor receptor-bound protein 2 (Homo sapiens, UniProt P62993)
Sequence (P62993 whole entry): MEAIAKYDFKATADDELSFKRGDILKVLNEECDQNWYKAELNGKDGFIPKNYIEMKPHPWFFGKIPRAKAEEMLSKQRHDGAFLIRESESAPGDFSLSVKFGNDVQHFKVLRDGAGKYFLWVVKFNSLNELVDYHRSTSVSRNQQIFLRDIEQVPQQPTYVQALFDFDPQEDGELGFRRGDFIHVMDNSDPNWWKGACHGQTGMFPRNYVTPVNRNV
measured.metric: pKd
Field pKd (float): negative decimal logarithm of the concentration in molar.

# entry.smiles, target.or.test.system, pKd
records = [
    ("Cc1ccc2c(ccn2C[C@@H]2C/C=C/[C@H](c3ccc(C(C(=O)O)C(=O)O)cc3)[C@H](CC(=O)O)C(=O)NC3(CCCCC3)C(=O)N[C@@H](CC(N)=O)C(=O)NC2)c1", "Growth factor receptor-bound protein 2 (Homo sapiens, UniProt P62993)", 8.44),
    ("Cc1ccc2c(ccn2C[C@@H]2C/C=C/[C@H](c3ccc(NC(=O)C(=O)O)cc3)[C@H](CC(=O)O)C(=O)NC3(CCCCC3)C(=O)N[C@@H](CC(N)=O)C(=O)NC2)c1", "Growth factor receptor-bound protein 2 (Homo sapiens, UniProt P62993)", 7.17),
]

Note: attention shifts to another entry.
Fill blank: measured pKd of the compound "Cc1ccc2c(ccn2C[C@@H]2C/C=C/[C@H](c3ccc(CP(C)(=O)O)cc3)[C@H](CC(=O)O)C(=O)NC3(CCCCC3)C(=O)N[C@@H](CC(N)=O)C(=O)NC2)c1" is ____.
7.79

====

molecular target: Growth factor receptor-bound protein 2 (Homo sapiens, UniProt P62993); assay: Binding off-rate against growth factor receptor bound protein 2
measured.metric: koff (s⁻¹)
Express your answer in s⁻¹, writing the number without its unit.

Study these solved cases before continuing.
# entry.smiles, koff, s⁻¹
records = [
    ("Cc1ccc2c(ccn2C[C@@H]2C/C=C/[C@H](c3ccc(C(C(=O)O)C(=O)O)cc3)[C@H](CC(=O)O)C(=O)NC3(CCCCC3)C(=O)N[C@@H](CC(N)=O)C(=O)NC2)c1", 0.0227),
    ("Cc1ccc2c(ccn2C[C@@H]2C/C=C/[C@H](c3ccc(NC(=O)C(=O)O)cc3)[C@H](CC(=O)O)C(=O)NC3(CCCCC3)C(=O)N[C@@H](CC(N)=O)C(=O)NC2)c1", 0.0508),
    ("Cc1ccc2c(ccn2C[C@@H]2C/C=C/[C@H](c3ccc(CC(=O)O)cc3)[C@H](CC(=O)O)C(=O)NC3(CCCCC3)C(=O)N[C@@H](CC(N)=O)C(=O)NC2)c1", 0.0101),
    ("Cc1ccc2c(ccn2C[C@@H]2C/C=C/[C@H](c3ccc(CP(=O)(O)O)cc3)[C@H](CC(=O)O)C(=O)NC3(CCCCC3)C(=O)N[C@@H](CC(N)=O)C(=O)NC2)c1", 0.00801),
    ("Cc1ccc2c(ccn2C[C@@H]2C/C=C/[C@H](c3ccc(CP(C)(=O)O)cc3)[C@H](CC(=O)O)C(=O)NC3(CCCCC3)C(=O)N[C@@H](CC(N)=O)C(=O)NC2)c1", 0.00988),
]

Note: attention shifts to another entry.
Fill blank: measured koff of the molecule "Cc1ccc2c(ccn2C[C@@H]2C/C=C/[C@H](c3ccc(CP(=O)(O)Cc4ccccc4)cc3)[C@H](CC(=O)O)C(=O)NC3(CCCCC3)C(=O)N[C@@H](CC(N)=O)C(=O)NC2)c1" is ____.
0.00512

====

Values of pIC50 reported for Growth factor receptor-bound protein 2 (Homo sapiens) appear below.
Field pIC50 (float): negative decimal logarithm of the concentration in molar.

Study these solved cases before continuing.
# entry.smiles, measured.metric, recorded.number
data = [
    ("Cc1ccc2c(ccn2C[C@@H]2C/C=C/[C@H](c3ccc(CC(=O)O)cc3)[C@H](CC(=O)O)C(=O)NC3(CCCCC3)C(=O)N[C@@H](CC(N)=O)C(=O)NC2)c1", "pIC50", 7.65),
    ("Cc1ccc2c(ccn2C[C@@H]2C/C=C/[C@H](c3ccc(CP(=O)(O)O)cc3)[C@H](CC(=O)O)C(=O)NC3(CCCCC3)C(=O)N[C@@H](CC(N)=O)C(=O)NC2)c1", "pIC50", 7.82),
]

Query for Growth factor receptor-bound protein 2 (Homo sapiens): what pIC50 does the record show for "Cc1ccc2c(ccn2C[C@@H]2C/C=C/[C@H](c3ccc(CP(=O)(O)Cc4ccccc4)cc3)[C@H](CC(=O)O)C(=O)NC3(CCCCC3)C(=O)N[C@@H](CC(N)=O)C(=O)NC2)c1" ?
8.08
